TARGET OR TEST SYSTEM: UniProt P31424
Sequence (P31424 21-1203 limits assumed): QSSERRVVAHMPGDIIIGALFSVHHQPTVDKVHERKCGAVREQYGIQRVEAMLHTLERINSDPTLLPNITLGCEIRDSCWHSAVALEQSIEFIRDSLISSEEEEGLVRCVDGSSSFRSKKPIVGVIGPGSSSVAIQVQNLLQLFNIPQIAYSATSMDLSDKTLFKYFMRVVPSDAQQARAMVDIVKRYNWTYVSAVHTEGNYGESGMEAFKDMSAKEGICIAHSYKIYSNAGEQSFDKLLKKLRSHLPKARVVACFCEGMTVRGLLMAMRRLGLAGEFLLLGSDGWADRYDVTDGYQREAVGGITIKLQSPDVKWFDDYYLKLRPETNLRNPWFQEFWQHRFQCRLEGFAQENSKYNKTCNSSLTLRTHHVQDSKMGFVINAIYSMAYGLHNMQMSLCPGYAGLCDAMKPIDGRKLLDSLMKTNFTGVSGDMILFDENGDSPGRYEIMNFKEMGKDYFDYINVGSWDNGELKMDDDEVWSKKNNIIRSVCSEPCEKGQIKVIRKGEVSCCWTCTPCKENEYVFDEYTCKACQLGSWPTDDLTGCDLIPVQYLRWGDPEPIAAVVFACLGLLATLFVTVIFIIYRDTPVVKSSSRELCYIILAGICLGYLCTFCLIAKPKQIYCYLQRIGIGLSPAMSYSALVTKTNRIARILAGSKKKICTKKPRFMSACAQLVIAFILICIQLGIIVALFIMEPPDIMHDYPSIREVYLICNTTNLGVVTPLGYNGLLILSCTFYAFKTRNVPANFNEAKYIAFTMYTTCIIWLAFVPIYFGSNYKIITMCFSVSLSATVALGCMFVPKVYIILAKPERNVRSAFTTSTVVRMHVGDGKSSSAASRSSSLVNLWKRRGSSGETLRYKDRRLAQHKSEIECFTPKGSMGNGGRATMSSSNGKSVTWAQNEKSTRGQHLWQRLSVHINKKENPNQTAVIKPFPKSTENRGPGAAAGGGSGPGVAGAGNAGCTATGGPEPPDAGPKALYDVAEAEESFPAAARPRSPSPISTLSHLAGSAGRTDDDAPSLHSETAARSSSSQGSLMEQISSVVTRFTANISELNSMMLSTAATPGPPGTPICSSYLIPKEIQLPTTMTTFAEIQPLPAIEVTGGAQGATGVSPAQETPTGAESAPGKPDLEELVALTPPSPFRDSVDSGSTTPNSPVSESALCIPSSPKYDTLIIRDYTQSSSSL
TEST PROTOCOL: Positive allosteric modulator activity at rat mGlu5 receptor expressed in HEK293 cells assessed as potentiation of glutamate-induced calcium mobilization at 30 uM by fluorescence assay relative to glutamate
Type: functional, cell-based

COMPOUND STRUCTURE	TARGET OR TEST SYSTEM	%max / %
O=C1c2ccc(COc3cccc(F)c3)nc2CCN1Cc1ccccc1	UniProt P31424	38
CC(C)CN1CCc2nc(COc3cccc(F)c3)ccc2C1=O	UniProt P31424	38
O=C(c1ccc(F)cc1)N1CCc2ncc(COc3cccc(F)c3)cc2C1	UniProt P31424	69
O=C1c2ccc(COc3ccccc3)nc2CCN1c1ccc(F)cc1	UniProt P31424	68
O=C1NCCc2nc(OCc3cccc(Cl)c3)ccc21	UniProt P31424	43
O=C1NCCc2nc(OCc3ccccc3F)ccc21	UniProt P31424	68
O=C1c2ccc(COc3cccc(F)c3)nc2CCN1c1ccc(F)cn1	UniProt P31424	59
